From: ChEMBL document CHEMBL3227999

Field: inhibition. Provide a value for each of the compounds that follow.
biological target: Bacterial DNA-directed RNA polymerase (Bacteria) (UniProt P0A8V2+P0A7Z4+P0A8T7+P0A800); test: Inhibition of Escherichia coli DNA-dependent RNA polymerase at 10 ug/ml using Micrococcus luteus DNA as primer; assay type: protein-complex assay
Sequence (P0A7Z4 whole entry partner): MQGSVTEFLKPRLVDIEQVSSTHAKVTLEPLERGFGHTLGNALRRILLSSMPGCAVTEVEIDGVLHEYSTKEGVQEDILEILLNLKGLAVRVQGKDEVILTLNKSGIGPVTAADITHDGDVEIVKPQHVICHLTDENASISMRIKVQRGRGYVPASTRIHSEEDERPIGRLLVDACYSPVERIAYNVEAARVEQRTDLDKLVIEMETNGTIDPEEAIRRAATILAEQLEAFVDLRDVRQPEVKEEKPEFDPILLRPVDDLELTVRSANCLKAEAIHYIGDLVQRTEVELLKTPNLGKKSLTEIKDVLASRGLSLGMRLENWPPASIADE
Sequence (P0A800 2-91 partner limits assumed): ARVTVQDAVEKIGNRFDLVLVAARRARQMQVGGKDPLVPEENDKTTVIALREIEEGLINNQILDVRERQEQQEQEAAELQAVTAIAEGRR
Sequence (P0A8T7 whole entry partner): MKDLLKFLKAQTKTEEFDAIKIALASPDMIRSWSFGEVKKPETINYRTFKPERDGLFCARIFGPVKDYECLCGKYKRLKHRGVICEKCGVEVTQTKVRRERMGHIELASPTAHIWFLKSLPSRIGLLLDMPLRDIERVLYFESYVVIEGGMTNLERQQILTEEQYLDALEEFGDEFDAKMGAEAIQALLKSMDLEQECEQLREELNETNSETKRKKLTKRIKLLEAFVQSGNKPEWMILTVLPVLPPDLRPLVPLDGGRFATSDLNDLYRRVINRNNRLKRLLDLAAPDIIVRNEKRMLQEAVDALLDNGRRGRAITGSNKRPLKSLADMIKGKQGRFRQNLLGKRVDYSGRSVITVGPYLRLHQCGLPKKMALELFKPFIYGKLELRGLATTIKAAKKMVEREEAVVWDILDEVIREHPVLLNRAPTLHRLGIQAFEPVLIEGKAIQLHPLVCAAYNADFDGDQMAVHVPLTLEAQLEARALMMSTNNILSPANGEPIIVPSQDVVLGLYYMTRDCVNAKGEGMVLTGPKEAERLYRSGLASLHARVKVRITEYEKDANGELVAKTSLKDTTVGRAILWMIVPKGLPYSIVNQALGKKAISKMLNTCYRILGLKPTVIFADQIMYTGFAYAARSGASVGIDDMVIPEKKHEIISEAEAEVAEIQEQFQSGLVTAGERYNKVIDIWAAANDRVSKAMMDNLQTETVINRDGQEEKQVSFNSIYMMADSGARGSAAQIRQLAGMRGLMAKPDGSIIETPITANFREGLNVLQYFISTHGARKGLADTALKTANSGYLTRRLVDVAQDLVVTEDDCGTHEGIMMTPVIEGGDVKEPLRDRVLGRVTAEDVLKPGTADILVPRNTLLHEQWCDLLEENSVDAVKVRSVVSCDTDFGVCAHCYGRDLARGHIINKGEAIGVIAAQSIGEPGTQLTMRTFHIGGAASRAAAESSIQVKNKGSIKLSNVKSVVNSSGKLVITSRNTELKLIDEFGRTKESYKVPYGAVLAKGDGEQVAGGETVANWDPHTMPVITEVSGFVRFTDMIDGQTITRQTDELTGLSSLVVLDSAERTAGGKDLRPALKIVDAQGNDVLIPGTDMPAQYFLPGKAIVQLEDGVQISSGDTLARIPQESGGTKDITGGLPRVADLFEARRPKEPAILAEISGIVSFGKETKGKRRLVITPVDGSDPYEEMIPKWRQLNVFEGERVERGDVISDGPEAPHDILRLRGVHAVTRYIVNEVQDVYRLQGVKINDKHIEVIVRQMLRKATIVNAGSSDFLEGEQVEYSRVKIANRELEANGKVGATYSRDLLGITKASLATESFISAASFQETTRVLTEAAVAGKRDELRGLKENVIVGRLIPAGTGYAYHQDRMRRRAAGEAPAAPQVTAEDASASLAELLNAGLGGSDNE
Sequence (P0A8V2 whole entry): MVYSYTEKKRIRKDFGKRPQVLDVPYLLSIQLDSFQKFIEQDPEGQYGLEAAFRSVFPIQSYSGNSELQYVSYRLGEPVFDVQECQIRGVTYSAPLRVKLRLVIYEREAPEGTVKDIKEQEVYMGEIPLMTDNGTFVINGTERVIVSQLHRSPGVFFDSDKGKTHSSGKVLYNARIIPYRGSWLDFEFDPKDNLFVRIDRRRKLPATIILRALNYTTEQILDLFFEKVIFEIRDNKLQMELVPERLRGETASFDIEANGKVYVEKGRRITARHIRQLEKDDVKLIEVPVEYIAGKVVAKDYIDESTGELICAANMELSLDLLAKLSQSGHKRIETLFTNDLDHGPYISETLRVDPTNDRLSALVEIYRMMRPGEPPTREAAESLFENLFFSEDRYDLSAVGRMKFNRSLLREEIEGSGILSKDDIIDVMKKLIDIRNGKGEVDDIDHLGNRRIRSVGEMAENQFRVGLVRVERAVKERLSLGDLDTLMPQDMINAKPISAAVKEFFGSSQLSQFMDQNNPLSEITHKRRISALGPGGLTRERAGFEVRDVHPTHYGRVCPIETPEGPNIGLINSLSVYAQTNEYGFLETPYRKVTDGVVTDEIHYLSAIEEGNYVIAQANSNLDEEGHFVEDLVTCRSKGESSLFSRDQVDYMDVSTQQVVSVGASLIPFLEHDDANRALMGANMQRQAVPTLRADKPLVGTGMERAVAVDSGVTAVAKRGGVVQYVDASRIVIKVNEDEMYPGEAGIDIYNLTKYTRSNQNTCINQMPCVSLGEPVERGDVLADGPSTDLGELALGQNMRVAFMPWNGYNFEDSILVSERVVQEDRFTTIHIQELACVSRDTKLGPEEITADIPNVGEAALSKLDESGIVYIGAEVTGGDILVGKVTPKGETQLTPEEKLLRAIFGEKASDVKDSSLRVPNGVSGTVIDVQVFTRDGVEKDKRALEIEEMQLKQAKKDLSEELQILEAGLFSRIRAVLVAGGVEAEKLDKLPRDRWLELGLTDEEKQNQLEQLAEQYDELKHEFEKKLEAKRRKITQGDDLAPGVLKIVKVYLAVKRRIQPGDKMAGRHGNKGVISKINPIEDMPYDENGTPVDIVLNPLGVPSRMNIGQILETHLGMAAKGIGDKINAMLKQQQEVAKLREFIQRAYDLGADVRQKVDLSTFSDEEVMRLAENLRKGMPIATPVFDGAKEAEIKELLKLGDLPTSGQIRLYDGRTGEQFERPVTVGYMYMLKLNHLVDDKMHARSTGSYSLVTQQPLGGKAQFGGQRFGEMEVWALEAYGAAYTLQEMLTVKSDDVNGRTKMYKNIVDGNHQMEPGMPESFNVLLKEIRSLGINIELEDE
Numbers only, in %.

I'm hoping you can list inhibition for every compound here, please.
1. Cc1c2oc3c(C)ccc(C(=O)N[C@@H]4C(=O)N[C@H](C(C)C)C(=O)N5CCC[C@H]5C(=O)N(C)CC(=O)N(C)[C@@H](C(C)C)C(=O)O[C@@H]4C)c3nc-2c(C(=O)N[C@@H]2C(=O)N[C@H](C(C)C)C(=O)N3CCC[C@H]3C(=O)N(C)CC(=O)N(C)[C@@H](C(C)C)C(=O)O[C@@H]2C)c(NC2CC(C)(C)N([O])C(C)(C)C2)c1=O
2. Cc1c2oc3c(C)ccc(C(=O)N[C@@H]4C(=O)N[C@H](C(C)C)C(=O)N5CCC[C@H]5C(=O)N(C)CC(=O)N(C)[C@@H](C(C)C)C(=O)O[C@@H]4C)c3nc-2c(C(=O)N[C@@H]2C(=O)N[C@H](C(C)C)C(=O)N3CCC[C@H]3C(=O)N(C)CC(=O)N(C)[C@@H](C(C)C)C(=O)O[C@@H]2C)c(NCCNC2CC(C)(C)N([O])C(C)(C)C2)c1=O

1. 57
2. 78

Which value of inhibition has been reported for "Cc1c2oc3c(C)ccc(C(=O)N[C@@H]4C(=O)N[C@H](C(C)C)C(=O)N5CCC[C@H]5C(=O)N(C)CC(=O)N(C)[C@@H](C(C)C)C(=O)O[C@@H]4C)c3nc-2c(C(=O)N[C@@H]2C(=O)N[C@H](C(C)C)C(=O)N3CCC[C@H]3C(=O)N(C)CC(=O)N(C)[C@@H](C(C)C)C(=O)O[C@@H]2C)c(NCCCNC2CC(C)(C)N([O])C(C)(C)C2)c1=O" in the records?
32

* * *

test system: L1210; assay: Cytotoxicity against mouse L1210 cells at 5 ug/ml after 48 hrs; format: functional; settings: L1210, 48 h
Numbered stars: 1 amine (or outer) side, 2 acyl side, 3 side chain; on linkers, the order of the positions; unused ones are H or OH. Bridge positions count the residues as written; N and C are the ends. Square brackets hold non-standard residues; d marks the D form. Peptide text beside a SMILES is read from it. I, II: the chains in the order shown. Actinocin(9to1) = Cc1c2oc3c(C)ccc(C(=O)[*:1])c3nc-2c(C(=O)[*:2])c(N)c1=O; NMeV = CN[C@H](C(=O)O)C(C)C; Sar = CNCC(=O)O
measured-quantity: inhibition at 5 µg/mL (%)
Answers are plain numbers, in %.

Some solved cases for reference:
{"compound": "Cc1c2oc3c(C)ccc(C(=O)N[C@@H]4C(=O)N[C@H](C(C)C)C(=O)N5CCC[C@H]5C(=O)N(C)CC(=O)N(C)[C@@H](C(C)C)C(=O)O[C@@H]4C)c3nc-2c(C(=O)N[C@@H]2C(=O)N[C@H](C(C)C)C(=O)N3CCC[C@H]3C(=O)N(C)CC(=O)N(C)[C@@H](C(C)C)C(=O)O[C@@H]2C)c(NC2CC(C)(C)N([O])C(C)(C)C2)c1=O", "inhibition at 5 µg/mL / %": 96}
{"compound": "Cc1c2oc3c(C)ccc(C(=O)N[C@@H]4C(=O)N[C@H](C(C)C)C(=O)N5CCC[C@H]5C(=O)N(C)CC(=O)N(C)[C@@H](C(C)C)C(=O)O[C@@H]4C)c3nc-2c(C(=O)N[C@@H]2C(=O)N[C@H](C(C)C)C(=O)N3CCC[C@H]3C(=O)N(C)CC(=O)N(C)[C@@H](C(C)C)C(=O)O[C@@H]2C)c(N)c1=O [DACTINOMYCIN] (I: T[dV]P[Sar][NMeV] / II: T[dV]P[Sar][NMeV]; ester I:1-I:C, II:1-II:C; linker I:N-II:N via Actinocin(9to1))", "inhibition at 5 µg/mL / %": 99}
{"compound": "Cc1c2oc3c(C)ccc(C(=O)N[C@@H]4C(=O)N[C@H](C(C)C)C(=O)N5CCC[C@H]5C(=O)N(C)CC(=O)N(C)[C@@H](C(C)C)C(=O)O[C@@H]4C)c3nc-2c(C(=O)N[C@@H]2C(=O)N[C@H](C(C)C)C(=O)N3CCC[C@H]3C(=O)N(C)CC(=O)N(C)[C@@H](C(C)C)C(=O)O[C@@H]2C)c(NCCCNC2CC(C)(C)N([O])C(C)(C)C2)c1=O", "inhibition at 5 µg/mL / %": 69}

L1210 / inhibition at 5 µg/mL / "Cc1c2oc3c(C)ccc(C(=O)N[C@@H]4C(=O)N[C@H](C(C)C)C(=O)N5CCC[C@H]5C(=O)N(C)CC(=O)N(C)[C@@H](C(C)C)C(=O)O[C@@H]4C)c3nc-2c(C(=O)N[C@@H]2C(=O)N[C@H](C(C)C)C(=O)N3CCC[C@H]3C(=O)N(C)CC(=O)N(C)[C@@H](C(C)C)C(=O)O[C@@H]2C)c(NCCNC2CC(C)(C)N([O])C(C)(C)C2)c1=O" : value?
98

* * *

Please respond with reported inhibition for every item in the list.
target: Bacterial DNA-directed RNA polymerase (Bacteria) (UniProt P0A8V2+P0A7Z4+P0A8T7+P0A800); test: Inhibition of Escherichia coli DNA-dependent RNA polymerase at 10 ug/ml using calf thymus DNA as primer; type: protein-complex assay
Numbered stars: 1 amine (or outer) side, 2 acyl side, 3 side chain; on linkers, the order of the positions; unused ones are H or OH. Bridge positions count the residues as written; N and C are the ends. Square brackets hold non-standard residues; d marks the D form. Peptide text beside a SMILES is read from it. I, II: the chains in the order shown. Actinocin(9to1) = Cc1c2oc3c(C)ccc(C(=O)[*:1])c3nc-2c(C(=O)[*:2])c(N)c1=O; NMeV = CN[C@H](C(=O)O)C(C)C; Sar = CNCC(=O)O
Number plus unit, in that order.

// worked examples, inhibition included
{"compound": "Cc1c2oc3c(C)ccc(C(=O)N[C@@H]4C(=O)N[C@H](C(C)C)C(=O)N5CCC[C@H]5C(=O)N(C)CC(=O)N(C)[C@@H](C(C)C)C(=O)O[C@@H]4C)c3nc-2c(C(=O)N[C@@H]2C(=O)N[C@H](C(C)C)C(=O)N3CCC[C@H]3C(=O)N(C)CC(=O)N(C)[C@@H](C(C)C)C(=O)O[C@@H]2C)c(NCCNC2CC(C)(C)N([O])C(C)(C)C2)c1=O", "inhibition": "81%"}
{"compound": "Cc1c2oc3c(C)ccc(C(=O)N[C@@H]4C(=O)N[C@H](C(C)C)C(=O)N5CCC[C@H]5C(=O)N(C)CC(=O)N(C)[C@@H](C(C)C)C(=O)O[C@@H]4C)c3nc-2c(C(=O)N[C@@H]2C(=O)N[C@H](C(C)C)C(=O)N3CCC[C@H]3C(=O)N(C)CC(=O)N(C)[C@@H](C(C)C)C(=O)O[C@@H]2C)c(NC2CC(C)(C)N([O])C(C)(C)C2)c1=O", "inhibition": "62%"}
{"compound": "Cc1c2oc3c(C)ccc(C(=O)N[C@@H]4C(=O)N[C@H](C(C)C)C(=O)N5CCC[C@H]5C(=O)N(C)CC(=O)N(C)[C@@H](C(C)C)C(=O)O[C@@H]4C)c3nc-2c(C(=O)N[C@@H]2C(=O)N[C@H](C(C)C)C(=O)N3CCC[C@H]3C(=O)N(C)CC(=O)N(C)[C@@H](C(C)C)C(=O)O[C@@H]2C)c(N)c1=O [DACTINOMYCIN] (I: T[dV]P[Sar][NMeV] / II: T[dV]P[Sar][NMeV]; ester I:1-I:C, II:1-II:C; linker I:N-II:N via Actinocin(9to1))", "inhibition": "96%"}

Please look at the following compound next.
Consider the compound "Cc1c2oc3c(C)ccc(C(=O)N[C@@H]4C(=O)N[C@H](C(C)C)C(=O)N5CCC[C@H]5C(=O)N(C)CC(=O)N(C)[C@@H](C(C)C)C(=O)O[C@@H]4C)c3nc-2c(C(=O)N[C@@H]2C(=O)N[C@H](C(C)C)C(=O)N3CCC[C@H]3C(=O)N(C)CC(=O)N(C)[C@@H](C(C)C)C(=O)O[C@@H]2C)c(NCCCNC2CC(C)(C)N([O])C(C)(C)C2)c1=O" and give its measured inhibition.
49%

* * *

molecular target: Bacterial DNA-directed RNA polymerase (Bacteria) (UniProt P0A8V2+P0A7Z4+P0A8T7+P0A800); assay: Inhibition of Escherichia coli DNA-dependent RNA polymerase at 20 ug/ml using calf thymus DNA as primer; assay type: protein-complex assay
Numbered stars: 1 amine (or outer) side, 2 acyl side, 3 side chain; on linkers, the order of the positions; unused ones are H or OH. Bridge positions count the residues as written; N and C are the ends. Square brackets hold non-standard residues; d marks the D form. Peptide text beside a SMILES is read from it. I, II: the chains in the order shown. Actinocin(9to1) = Cc1c2oc3c(C)ccc(C(=O)[*:1])c3nc-2c(C(=O)[*:2])c(N)c1=O; NMeV = CN[C@H](C(=O)O)C(C)C; Sar = CNCC(=O)O
measured-quantity: inhibition (%)
One number for each entry, in %.

{"compound": "Cc1c2oc3c(C)ccc(C(=O)N[C@@H]4C(=O)N[C@H](C(C)C)C(=O)N5CCC[C@H]5C(=O)N(C)CC(=O)N(C)[C@@H](C(C)C)C(=O)O[C@@H]4C)c3nc-2c(C(=O)N[C@@H]2C(=O)N[C@H](C(C)C)C(=O)N3CCC[C@H]3C(=O)N(C)CC(=O)N(C)[C@@H](C(C)C)C(=O)O[C@@H]2C)c(NCCCNC2CC(C)(C)N([O])C(C)(C)C2)c1=O", "inhibition, %": 79}
{"compound": "Cc1c2oc3c(C)ccc(C(=O)N[C@@H]4C(=O)N[C@H](C(C)C)C(=O)N5CCC[C@H]5C(=O)N(C)CC(=O)N(C)[C@@H](C(C)C)C(=O)O[C@@H]4C)c3nc-2c(C(=O)N[C@@H]2C(=O)N[C@H](C(C)C)C(=O)N3CCC[C@H]3C(=O)N(C)CC(=O)N(C)[C@@H](C(C)C)C(=O)O[C@@H]2C)c(NC2CC(C)(C)N([O])C(C)(C)C2)c1=O", "inhibition, %": 78}
{"compound": "Cc1c2oc3c(C)ccc(C(=O)N[C@@H]4C(=O)N[C@H](C(C)C)C(=O)N5CCC[C@H]5C(=O)N(C)CC(=O)N(C)[C@@H](C(C)C)C(=O)O[C@@H]4C)c3nc-2c(C(=O)N[C@@H]2C(=O)N[C@H](C(C)C)C(=O)N3CCC[C@H]3C(=O)N(C)CC(=O)N(C)[C@@H](C(C)C)C(=O)O[C@@H]2C)c(N)c1=O [DACTINOMYCIN] (I: T[dV]P[Sar][NMeV] / II: T[dV]P[Sar][NMeV]; ester I:1-I:C, II:1-II:C; linker I:N-II:N via Actinocin(9to1))", "inhibition, %": 100}

Query compound follows.
Reported inhibition for "Cc1c2oc3c(C)ccc(C(=O)N[C@@H]4C(=O)N[C@H](C(C)C)C(=O)N5CCC[C@H]5C(=O)N(C)CC(=O)N(C)[C@@H](C(C)C)C(=O)O[C@@H]4C)c3nc-2c(C(=O)N[C@@H]2C(=O)N[C@H](C(C)C)C(=O)N3CCC[C@H]3C(=O)N(C)CC(=O)N(C)[C@@H](C(C)C)C(=O)O[C@@H]2C)c(NCCNC2CC(C)(C)N([O])C(C)(C)C2)c1=O" : what is it?
88
